Experiment: Whole blood stability, mouse
Type: in vitro ADME
Settings: male, Balb/c, fresh whole blood, 37° C.
attribute_measured: half-life at 1 μM (h)
Give the number; h is assumed, so skip it.

{"columns": ["molecule", "half-life at 1 μM, h"],
 "data": [
  ["CC1(C)CN(c2ccc(Oc3ccccc3)cc2)c2nc(COC(=N)N3CCC(F)(F)CC3)nc(N)c21 [Compound E2]", 6.47]
]}

Name the recorded half-life at 1 μM for N=C(OCc1nc(N)nc(Nc2ccc(Oc3ccccc3)cc2)n1)N1CCC(F)(F)CC1 [Compound F13] .
7.95

Fill blank: measured half-life at 1 μM of the molecule N=C(OCc1nc(N)nc(Nc2ccc(Oc3ccccc3)cc2)n1)N1CCOCC1 [Compound F6] is ____.
5.65

* * *

Listed here are molecules together with their documented IC50.
Tested on: 786-O (renal cell carcinoma) cells
Experiment: Cell viability (CellTiter Glo) assay, inhibition of 786-O cell proliferation
Format: cell-based
Settings: Homo sapiens, 786-0; 786-O cells, 72 hours, CellTiter Glo; read-out: IC50, inhibition of 786-O cell proliferation

// solved cases for IC50 follow
{"columns": ["molecule", "IC50"],
 "data": [
  ["C[C@@H]1CN(c2ccc(N3CC(C)(C)c4c(N)nc(COC(=N)N5CCC[C@@H]5C(F)(F)F)nc43)cn2)C[C@H](C)O1 [Compound E20]", "< 100 nM"],
  ["C=CCNc1nc(COC(=N)N2CCC[C@@H]2C(F)(F)F)nc2c1C(C)(C)C(=O)N2c1ccc(N2CCOCC2)cc1 [Compound E56]", "< 100 nM"],
  ["N=C(OCc1ncc(C2CCCO2)c(Nc2ccc(Oc3ccccc3)cc2)n1)N1CCCCC1C(F)(F)F (stereo not shown) [Compound E119]", "< 100 nM"]
]}

Look up IC50 for this molecule: N=C(OCc1nc(NC2CC2)c2c(n1)N(c1cc(F)c3c(c1)CCO3)C(=O)C21CCCCC1)N1CCC[C@@H]1C(F)(F)F [Compound E55]
< 100 nM

Please report the recorded IC50 for C[C@@H]1CN(c2ccc(N3C(=O)C(C)(C)c4c(NCC(F)(F)F)nc(COC(=N)N5CCC[C@@H]5C(F)(F)F)nc43)cc2F)C[C@H](C)O1 [Compound E50] .
< 100 nM

# IC50 lookup, item CC1(C)C(=O)N(c2ccc(N3CCOCC3)cc2)c2nc(COC(=N)N3CCC[C@@H]3C(F)(F)F)nc(NCC(F)(F)F)c21 [Compound E48]
< 100 nM

Sample C[C@@H]1CN(c2ccc(N3C(=O)C(C)(C)c4c(NCC(F)(F)F)nc(COC(=N)N5CCC[C@@H]5C(F)(F)F)nc43)cn2)C[C@H](C)O1 [Compound E38] — what was its IC50?
< 100 nM

Would you mind telling me what IC50 value was observed for CNc1nc(COC(=N)N2CCC[C@@H]2C(F)(F)F)nc2c1C1(CCCC1)C(=O)N2c1cnc(C2CC(C)(C)OC(C)(C)C2)nc1 [Compound E102] ?
100 to 500 nM

* * *

Test system: 786-O (renal cell carcinoma) cells
Assay: Cell viability (CellTiter Glo) assay, inhibition of 786-O cell proliferation
Type: cell-based
Details: Homo sapiens, 786-0; 786-O cells, 72 hours, CellTiter Glo; read-out: IC50, inhibition of 786-O cell proliferation
pIC50: −log10 of the molar value.
attribute_measured: pIC50

{"columns": ["compound", "pIC50"],
 "data": [
  ["CCN(CC)C(=N)OCc1nc(N)nc(Nc2ccc(Oc3ccccc3)cc2)n1", "6.30 to 7.00"],
  ["C[C@@H]1CN(c2ccc(N3C(=O)C4(CCCC4)c4c(NCC(F)(F)F)nc(COC(=N)N5CCC[C@@H]5C(F)(F)F)nc43)cn2)C[C@H](C)O1", "> 7.00"],
  ["N=C(OCc1nc(NC2CC2)c2c(n1)N(c1ccc(N3CCOCC3)c(F)c1)C(=O)C21CCCC1)N1CCC[C@@H]1C(F)(F)F", "> 7.00"],
  ["C[C@@H]1CN(c2ccc(N3C(=O)C(C)(C)c4c(N)nc(COC(=N)N(C)CC(F)(F)F)nc43)cn2)C[C@H](C)O1", "6.30 to 7.00"],
  ["CNc1nc(COC(=N)N2CCC[C@@H]2C(F)(F)F)nc2c1C1(CCCC1)C(=O)N2c1cnc(N2CC3CC2CO3)nc1 (stereo partly shown)", "6.30 to 7.00"],
  ["C#CCOc1cccc(Oc2ccc(Nc3nc(N)nc(COC(=N)N4CCC(F)(F)CC4)n3)cc2)c1", "> 7.00"]
]}

# pIC50 lookup, item CC1(C)C(=O)N(c2ccc(N3CCOCC3)cc2)c2nc(COC(=N)N3CCC[C@@H]3C(F)(F)F)nc(N3CC(F)(F)C3)c21
6.30 to 7.00

* * *

System: 786-O (renal cell carcinoma) cells
Assay: Cell viability (CellTiter Glo) assay, inhibition of 786-O cell proliferation
Format: cell-based
Conditions: Homo sapiens, 786-0; 786-O cells, 72 hours, CellTiter Glo; read-out: IC50, inhibition of 786-O cell proliferation
pIC50: −log10 of the molar value.
attribute_measured: pIC50

Consider the reported pIC50 for these molecules:
{"columns": ["molecule", "attribute_measured", "endpoint_result"],
 "data": [
  ["C[C@@H]1C[C@H](C)CN(c2ncc(N3C(=O)C(C)(C)c4c(N)nc(COC(=N)N5CCC[C@@H]5C(F)(F)F)nc43)cc2F)C1", "pIC50", "> 7.00"],
  ["CNc1nc(COC(=N)N2CCCCC2C(F)(F)F)nc2c1C(C)(C)C(=O)N2c1ccc(OC2CCCCC2)cc1 (stereo not shown)", "pIC50", "> 7.00"],
  ["C#CCN(CC(F)(F)F)C(=N)OCc1nc(N)c2c(n1)N(c1ccc(N3C[C@@H](C)O[C@@H](C)C3)nc1)C(=O)C2(C)C", "pIC50", "6.30 to 7.00"]
]}

Please look at the following molecule next.
For the molecule shown here, CN(C(=N)OCc1nc(N)nc(Nc2ccc(Oc3ccccc3)cc2)n1)C1CCCCC1 , give the reported pIC50.
> 7.00

* * *

Test system: 786-O (renal cell carcinoma) cells
Assay: Cell viability (CellTiter Glo) assay, inhibition of 786-O cell proliferation
Type: cell-based
Conditions: Homo sapiens, 786-0; 786-O cells, 72 hours, CellTiter Glo; read-out: IC50, inhibition of 786-O cell proliferation
pIC50: −log10 of the molar value.
attribute_measured: pIC50

{"columns": ["compound", "endpoint_result"],
 "data": [
  ["CN(C)c1nc(COC(=N)N2CCC[C@@H]2C(F)(F)F)nc2c1C(C)(C)C(=O)N2c1ccc(N2CCOCC2)cc1", "> 7.00"],
  ["CC(C)N(CC(F)(F)F)C(=N)OCc1ncc2c(n1)N(c1ccc(N3CCOCC3)nc1)CC2(C)C", "6.30 to 7.00"]
]}

--- query ---
Reported pIC50, compound CC1(C)C(=O)N(c2cnc(N3CCC(F)(F)CC3)nc2)c2nc(COC(=N)N3CCC[C@@H]3C(F)(F)F)nc(NC3CC3)c21 : ____
> 7.00

* * *

System: 786-O (renal cell carcinoma) cells
Assay: Cell viability (CellTiter Glo) assay, inhibition of 786-O cell proliferation
Assay type: cell-based
Conditions: Homo sapiens, 786-0; 786-O cells, 72 hours, CellTiter Glo; read-out: IC50, inhibition of 786-O cell proliferation
Listed here are molecules together with their documented IC50.

These solved cases illustrate the format of a correct answer.
{"columns": ["molecule", "target_or_system", "IC50"],
 "data": [
  ["N=C(OCc1nc(Nc2ccc(Oc3ccccc3)cc2)c2cc[nH]c2n1)N1CCCCC1", "786-O (renal cell carcinoma) cells", "100 to 500 nM"],
  ["N=C(OCc1nc(N)nc(Nc2ccc(Oc3ccccc3)cc2)n1)N1CCC(F)(F)CC1", "786-O (renal cell carcinoma) cells", "< 100 nM"],
  ["CC(C)N(CC(F)(F)F)C(=N)OCc1ncc2c(n1)N(c1ccc(OC3CCCCC3)nc1)CC2(C)C", "786-O (renal cell carcinoma) cells", "100 to 500 nM"],
  ["N=C(OCc1nc(N)nc(Nc2ccc(N3CCOCC3)cc2)n1)N1CCC[C@@H]1C(F)(F)F", "786-O (renal cell carcinoma) cells", "100 to 500 nM"],
  ["N=C(OCc1nc(NCC(F)(F)F)c2c(n1)N(c1cc(F)c3c(c1)CCO3)C(=O)C21CCCC1)N1CCC[C@@H]1C(F)(F)F", "786-O (renal cell carcinoma) cells", "< 100 nM"]
]}

What IC50 value was documented for this molecule, N=C(OCc1nc(NC2CC2)c2c(n1)N(c1cnc(N3CCCCC3)nc1)C(=O)C21CCCC1)N1CCC[C@@H]1C(F)(F)F ?
< 100 nM

Returns the measured IC50 for the input molecule. Input: CC(C)N(CC(F)(F)F)C(=N)OCc1ncc(C(C)(C)O)c(Nc2ccc(Oc3ccccc3)cc2)n1
100 to 500 nM

Sample CC(C)N(CC(F)(F)F)C(=N)OCc1ncc2c(n1)N(c1ccc(C3CCCCC3)nc1)C(=O)C21CC1 — what was its IC50?
500 to 5000 nM

Reported IC50, molecule N=C(OCc1nc(N)c2c(n1)N(c1cnc(N3CC4CC3CO4)nc1)C(=O)C21CCCC1)N1CCC[C@@H]1C(F)(F)F (some centres unmarked) : ____
500 to 5000 nM

What value of IC50 has been recorded for this entry: CNc1nc(COC(=N)N2CCC[C@@H]2C(F)(F)F)nc2c1C1(CCCC1)C(=O)N2c1cnc(C2CC2)nc1
100 to 500 nM

If you can, please state the reported IC50 value of C[C@@H]1CN(c2ccc(N3C(=O)C(C)(C)c4c(NC5CC5)nc(COC(=N)N5CCC[C@@H]5C(F)(F)F)nc43)cn2)C[C@H](C)O1 .
< 100 nM

Param item = N=C(OCc1nc(N)c2c(n1)N(c1cnc(N3CC(F)(F)C3)nc1)C(=O)C21CCCC1)N1CCC[C@@H]1C(F)(F)F ; retrieve measured IC50.
< 100 nM

# lookup: IC50 of CCN(CC(F)(F)F)C(=N)OCc1ncc(C#N)c(Nc2ccc(Oc3ccccc3)cc2)n1
500 to 5000 nM

# IC50 lookup, item CC1(C)C(=O)N(c2cc(F)c3c(c2)CCO3)c2nc(COC(=N)N3CCC[C@@H]3C(F)(F)F)nc(N)c21
< 100 nM
